Tested on: Stenotrophomonas malthophilia 1AC736
experiment: MIC by broth microdilution (NCCLS M7-A5)
conditions: Stenotrophomonas maltophilia 1AC736; antibiotic alone
value type: MIC of antibiotic (µg/mL)

I: C[C@H]1[C@H](NC(=O)/C(=N\OCc2cc(=O)c(O)cn2O)c2nccc(N)n2)C(=O)N1S(=O)(=O)O
II: CC1C(NC(=O)C(=NOCc2cc(=O)c(O)cn2O)c2nsc(N)n2)C(=O)N1S(=O)(=O)O (stereo not shown)
III: C[C@H]1[C@H](NC(=O)/C(=N\OCc2cc(=O)c(O)cn2O)c2csc(N)n2)C(=O)N1OCC(=O)O
## Task # rank above entries by MIC of antibiotic (max first, min last) Labels, requested order.
## Result I, II, III
(I: 8 µg/mL, II: 4 µg/mL, III: 0.5 µg/mL)
